TESTED_ON: CCK-1 receptors (Rattus norvegicus)
Construct: The pancreatic acini obtained from the outbred male rat pancreas of the Sprague Dawley strain; from tissue; host or cells: isolated pancreatic acini of male Sprague Dawley rats
Sequence (P30551 whole entry): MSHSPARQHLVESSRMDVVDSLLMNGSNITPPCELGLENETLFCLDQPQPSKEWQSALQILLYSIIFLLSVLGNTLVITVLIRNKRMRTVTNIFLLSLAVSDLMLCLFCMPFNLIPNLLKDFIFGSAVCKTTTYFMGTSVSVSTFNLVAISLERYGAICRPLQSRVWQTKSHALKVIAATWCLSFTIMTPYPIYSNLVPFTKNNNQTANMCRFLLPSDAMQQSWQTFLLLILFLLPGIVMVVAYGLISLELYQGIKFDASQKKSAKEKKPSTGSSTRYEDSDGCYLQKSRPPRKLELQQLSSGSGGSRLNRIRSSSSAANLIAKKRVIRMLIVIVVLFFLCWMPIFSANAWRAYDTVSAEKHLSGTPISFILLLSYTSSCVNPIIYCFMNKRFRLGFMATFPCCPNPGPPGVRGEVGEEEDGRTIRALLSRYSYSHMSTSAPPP
ASSAY_DETAILS: Inhibition of binding of [125I]-BH-CCK-8 to isolated rat pancreatic acini
CONDITION_CONTEXT: 30 minutes at 37° C.; at least 3 experiments; read-out: IC50, inhibition of binding of [125I]-BH-CCK-8 to isolated rat pancreatic acini
Protocol: The pancreatic acini obtained from the outbred male rat pancreas of the Sprague Dawley strain, were incubated in the presence of radioactive tracers and the compound studied for 30 minutes at 37° C. After having discarded the supernatant, the radioactivity associated with the pellet was determined with a liquid scintillator. The specific binding was determined as the difference between the binding in the absence and in the presence of CCK-8, 1.10^−6M. […]
PARAMETER: IC50 (nM)

O=C(Nc1ccccc1C(=O)NC(CCC1CCCCC1)C(=O)O)c1cc2ccccc2[nH]1 (centres unmarked) [Compound 49] | 40

I: CC(NC(=O)c1ccccc1NC(=O)c1cc2ccccc2[nH]1)C(=O)O (centres unmarked) [Compound 34]
II: O=C(Nc1ccccc1C(=O)NC(Cc1cccc(Cl)c1)C(=O)O)c1cc2ccccc2[nH]1 (centres unmarked) [Compound 14]
Query string: Param metric = IC50; output whichever of I , II has the minimum value. Return value: the label identifying the chosen record.
Result string: II
(II: 280 nM, I: 1960 nM)

1: O=C(Nc1ccccc1C(=O)N[C@@H](Cc1ccccc1)C(=O)O)c1cc2ccccc2[nH]1 [Compound 3]
2: O=C(Nc1ccccc1C(=O)NC(Cc1ccc(F)cc1)C(=O)O)c1cc2ccccc2[nH]1 (centres unmarked) [Compound 19]
Query string: Field: lower recorded IC50 (choose 1 or 2 ) State the label of the item chosen.
Result string: 2

P: COc1cccc(CC(NC(=O)c2ccccc2NC(=O)c2cc3ccccc3[nH]2)C(=O)O)c1 (centres unmarked) [Compound 16]
Q: O=C(Nc1ccccc1C(=O)NC(CCCc1ccccc1)C(=O)O)c1cc2ccccc2[nH]1 (centres unmarked) [Compound 24]
R: CSCCC(NC(=O)c1ccccc1NC(=O)c1cc2ccccc2[nH]1)C(=O)O (centres unmarked) [Compound 51]
Query string: Could you please sort these 3 entries by IC50 from high to low? Response field: labels, in requested order.
Result string: P, Q, R
(P: 240 nM, Q: 90 nM, R: 40 nM)

P: O=C(Nc1ccccc1C(=O)NC(CCc1ccc([N+](=O)[O-])cc1)C(=O)O)c1cc2ccccc2[nH]1 (centres unmarked) [Compound 29]
Q: Cc1ccc(CC(NC(=O)c2ccccc2NC(=O)c2cc3ccccc3[nH]2)C(=O)O)cc1 (centres unmarked) [Compound 12]
Query string: Parameter check: reported IC50 is higher for which label, P or Q ? Please indicate the selected item by its label.
Result string: Q
(Q: 370 nM, P: 120 nM)

====

TESTED_ON: CCK-2 receptor (Cavia porcellus, UniProt H0VZC5)
Construct: The incubation of the cerebral membranes together with the radioactive tracers and the compounds under study; from tissue; host or cells: cerebral cortex membranes of male albino Hartley guinea pigs
Sequence (H0VZC5 1-426): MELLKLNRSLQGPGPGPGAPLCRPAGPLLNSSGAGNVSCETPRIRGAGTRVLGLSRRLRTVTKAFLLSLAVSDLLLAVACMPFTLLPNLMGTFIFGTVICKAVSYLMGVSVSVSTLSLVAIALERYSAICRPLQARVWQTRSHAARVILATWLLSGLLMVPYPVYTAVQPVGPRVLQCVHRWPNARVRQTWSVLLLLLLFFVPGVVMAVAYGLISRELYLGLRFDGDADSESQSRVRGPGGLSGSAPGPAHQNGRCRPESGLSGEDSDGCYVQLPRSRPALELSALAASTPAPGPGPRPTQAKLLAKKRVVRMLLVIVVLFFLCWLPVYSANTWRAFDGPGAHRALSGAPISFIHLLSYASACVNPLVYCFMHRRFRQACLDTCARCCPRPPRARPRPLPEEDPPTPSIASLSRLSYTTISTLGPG
ASSAY_DETAILS: Inhibition of the binding of [125I]-BH-CCK-8 to the cortical membrane of guinea pigs
Design: species or system guinea pig
CONDITION_CONTEXT: 120 minutes at 25° C.; 25 pM marked binder; at least 3 tests
pIC50: −log10 of the molar value.
PARAMETER: pIC50

O=C(Nc1ccccc1C(=O)N[C@H](CCc1ccccc1)C(=O)O)c1cc2ccccc2[nH]1 | 5.42

a: CCC(CC)CC(NC(=O)c1ccccc1NC(=O)c1cc2ccccc2[nH]1)C(=O)O (centres unmarked)
b: COc1ccccc1CCC(NC(=O)c1ccccc1NC(=O)c1cc2cc(F)ccc2[nH]1)C(=O)O (centres unmarked)
Query string: Quick one: lower pIC50, a or b ? Respond with the label that goes with your answer.
Result string: b
(b: 5.25, a: 5.57)

Origin of values: patent US7294648B2
